System: PDGFRB
Conditions: concentration: 1 μM, replicates: in singlicate; n = 1;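 further: KINOMEscan kinase panel screen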
Form field: %Inh (one value per entry).

[
  {
    "molecule": "Cc1ccc(S(=O)(=O)Nc2ccc(Nc3nccc(Nc4cccc5[nH]ncc45)n3)cc2)cc1",
    "reading unit": "%",
    "%Inh": 73
  },
  {
    "molecule": "CCn1c(-c2nonc2N)nc2c(C#CC(C)(C)O)ncc(OCCCCN)c21.O=C(O)C(F)(F)F.O=C(O)C(F)(F)F",
    "reading unit": "%",
    "%Inh": 25
  },
  {
    "molecule": "Cl.NC(=O)c1cccc(Nc2nccc(Nc3ccc(Oc4c(Cl)cccc4Cl)c(Cl)c3)n2)c1",
    "reading unit": "%",
    "%Inh": 36
  },
  {
    "molecule": "Cc1occc1-c1ncc(OC[C@@H](N)Cc2c[nH]c3ccccc23)cc1-c1ccc2[nH]nc(C)c2c1.O=C(O)C(F)(F)F",
    "reading unit": "%",
    "%Inh": 81
  },
  {
    "molecule": "COc1cccc(C(=O)Nc2cccc(Oc3ccc4nc(NC(=O)C5CC5)cn4n3)c2)c1",
    "reading unit": "%",
    "%Inh": 100
  },
  {
    "molecule": "COc1ccc(Nc2nccc(NCCNC(=O)c3cc4ccccc4s3)n2)cc1",
    "reading unit": "%",
    "%Inh": 15
  },
  {
    "molecule": "COc1cccc(NC(=O)NC2CCN(c3ccnc(Nc4cc(OC)c(OC)c(OC)c4)n3)C2)c1 (centres unmarked)",
    "reading unit": "%",
    "%Inh": 83
  },
  {
    "molecule": "CNC(=O)c1ccccc1Nc1nc(Nc2ccc(N3CCOCC3)cc2)ncc1Cl.Cl",
    "reading unit": "%",
    "%Inh": 100
  }
]

====

Tested on: CAMKK2
Conditions: concentration: 1 μM, replicates: in singlicate; n = 1
// boundary case: %Inh equal to 20% maps to label 0; strictly smaller maps to label 1

[
  {
    "molecule": "COc1cc(Nc2nccc(-c3c(-c4cccc(NC(=O)c5c(F)cccc5F)c4)nn4ccccc34)n2)cc(OC)c1OC [GSK323521]",
    "group": "label 0"
  },
  {
    "molecule": "CNC(=O)c1ccccc1Nc1nc(Nc2ccc(N3CCOCC3)cc2)ncc1Cl.Cl [GSK1576028]",
    "group": "label 0"
  },
  {
    "molecule": "CCn1c(-c2nonc2N)nc2c(C#CC(C)(C)O)ncc(OCCCCN)c21.O=C(O)C(F)(F)F.O=C(O)C(F)(F)F [GSK507274]",
    "group": "label 1"
  },
  {
    "molecule": "O=C(NC1CCN(c2ccnc(Nc3ccc(F)cc3)n2)C1)c1cc2ccccc2s1 (stereo not shown) [GSK1379716]",
    "group": "label 1"
  },
  {
    "molecule": "Cn1cc(-c2ccc3c(c2)CCN3C(=O)Cc2cccc(Cl)c2)c2c(N)ncnc21 [GSK2606590]",
    "group": "label 1"
  },
  {
    "molecule": "Cl.c1ccc(-c2ccc3c(Nc4ccc5[nH]ncc5c4)ccnc3c2)nc1 [GW440137]",
    "group": "label 1"
  },
  {
    "molecule": "Cc1occc1-c1ncc(OC[C@@H](N)Cc2c[nH]c3ccccc23)cc1-c1ccc2[nH]nc(C)c2c1.O=C(O)C(F)(F)F [GSK682037]",
    "group": "label 1"
  }
]
